All figures here come from patent US20240132622A1.

Give measured koff for each item. Keep answers brief.
Target: T1, recombinant human PAD4 (human, UniProt Q9UM07 1-663)
T1 construct: also called rhPAD4; hPAD4
T1 sequence (Q9UM07 whole entry): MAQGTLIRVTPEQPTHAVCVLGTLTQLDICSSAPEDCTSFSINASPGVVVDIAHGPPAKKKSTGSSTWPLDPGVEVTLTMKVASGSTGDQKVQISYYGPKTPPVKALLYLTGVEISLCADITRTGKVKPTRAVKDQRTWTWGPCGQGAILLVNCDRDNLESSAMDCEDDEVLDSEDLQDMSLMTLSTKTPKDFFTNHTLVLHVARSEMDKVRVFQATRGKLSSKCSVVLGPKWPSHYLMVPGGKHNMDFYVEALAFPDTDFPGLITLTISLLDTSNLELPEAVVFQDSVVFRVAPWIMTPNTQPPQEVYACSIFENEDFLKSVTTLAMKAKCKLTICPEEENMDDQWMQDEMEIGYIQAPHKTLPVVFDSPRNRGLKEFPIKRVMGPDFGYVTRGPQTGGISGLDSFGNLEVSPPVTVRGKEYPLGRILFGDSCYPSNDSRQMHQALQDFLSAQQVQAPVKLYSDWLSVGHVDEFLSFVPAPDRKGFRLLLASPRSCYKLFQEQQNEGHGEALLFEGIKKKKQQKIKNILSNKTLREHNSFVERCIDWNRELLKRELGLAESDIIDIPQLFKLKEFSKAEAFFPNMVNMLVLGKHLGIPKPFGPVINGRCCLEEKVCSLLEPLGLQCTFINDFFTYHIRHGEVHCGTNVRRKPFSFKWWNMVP
Assay: SPR 37 C, captured antibody, PAD4 analyte, 2 mM EDTA
Note: unit s⁻¹ is implicit; provide only the numeric part.

Exercise: Can you share its koff? I mean this binder: hz13-4 (antibody, V domains shown, light constant region not tied to this antibody) VH: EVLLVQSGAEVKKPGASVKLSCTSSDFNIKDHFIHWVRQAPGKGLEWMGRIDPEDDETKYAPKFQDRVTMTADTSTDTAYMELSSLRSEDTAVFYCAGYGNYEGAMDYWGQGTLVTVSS VL: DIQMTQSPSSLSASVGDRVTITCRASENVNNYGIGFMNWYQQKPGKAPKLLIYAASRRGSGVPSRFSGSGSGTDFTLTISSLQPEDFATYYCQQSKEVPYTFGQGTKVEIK
Key: 0.00032

Exercise: Can you share its koff? I mean this binder: hz13-7 (antibody, V domains shown, light constant region not tied to this antibody) VH: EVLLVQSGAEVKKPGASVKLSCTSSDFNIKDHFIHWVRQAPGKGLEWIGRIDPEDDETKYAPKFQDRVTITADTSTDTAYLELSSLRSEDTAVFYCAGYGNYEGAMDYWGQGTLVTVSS VL: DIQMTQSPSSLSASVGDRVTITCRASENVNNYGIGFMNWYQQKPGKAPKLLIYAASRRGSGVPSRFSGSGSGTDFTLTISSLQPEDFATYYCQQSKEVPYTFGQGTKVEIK
Key: 0.00025

Exercise: Can you share its koff? I mean this binder: hz20-11 (antibody, V domains shown, light constant region not tied to this antibody) VH: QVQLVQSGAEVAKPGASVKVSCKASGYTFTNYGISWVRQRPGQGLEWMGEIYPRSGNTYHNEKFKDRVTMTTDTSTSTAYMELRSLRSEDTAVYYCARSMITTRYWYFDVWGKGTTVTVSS VL: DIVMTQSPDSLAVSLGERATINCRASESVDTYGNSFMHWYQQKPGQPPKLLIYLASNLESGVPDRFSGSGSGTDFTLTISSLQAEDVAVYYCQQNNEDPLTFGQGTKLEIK
Key: 0.00022

Exercise: Can you share its koff? I mean this binder: hz13-6 (antibody, V domains shown, light constant region not tied to this antibody) VH: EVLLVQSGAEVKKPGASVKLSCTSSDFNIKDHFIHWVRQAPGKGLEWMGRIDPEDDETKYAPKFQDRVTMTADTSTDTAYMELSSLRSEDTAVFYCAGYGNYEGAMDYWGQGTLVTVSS VL: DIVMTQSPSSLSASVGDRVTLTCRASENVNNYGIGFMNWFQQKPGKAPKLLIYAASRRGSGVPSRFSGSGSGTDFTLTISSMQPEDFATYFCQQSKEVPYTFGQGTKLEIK
Key: 0.00023

Exercise: Can you share its koff? I mean this binder: hz13-9 (antibody, V domains shown, light constant region not tied to this antibody) VH: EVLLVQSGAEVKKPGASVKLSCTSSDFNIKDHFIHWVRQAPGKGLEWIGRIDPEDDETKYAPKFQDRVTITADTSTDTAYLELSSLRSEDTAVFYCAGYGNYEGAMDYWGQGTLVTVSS VL: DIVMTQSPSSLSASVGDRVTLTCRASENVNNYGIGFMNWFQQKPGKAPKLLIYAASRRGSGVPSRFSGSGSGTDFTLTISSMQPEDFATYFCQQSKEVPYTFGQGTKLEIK
Key: 0.00019

Exercise: Can you share its koff? I mean this binder: hz13-5 D31E (antibody, V domains shown, IgG1.3f; also called clone 13-based hz13-5 D31E) VH: EVLLVQSGAEVKKPGASVKLSCTSSDFNIKEHFIHWVRQAPGKGLEWMGRIDPEDDETKYAPKFQDRVTMTADTSTDTAYMELSSLRSEDTAVFYCAGYGNYEGAMDYWGQGTLVTVSS VL: DIQMTQSPSSLSASVGDRVTITCRASENVNNYGIGFMNWFQQKPGKAPKLLIYAASRRGSGVPSRFSGSGSGTDFTLTISSLQPEDFATYFCQQSKEVPYTFGQGTKVEIKR
Key: 0.000358

Exercise: Can you share its koff? I mean this binder: hz20-6 (antibody, V domains shown, light constant region not tied to this antibody) VH: QVQLVQSGAEVKKPGASVKLSCKATGYTFTNYGISWVRQAPGQGLEWIGEIYPRSGNTYHNEKFKDRVTLTADKSSSTAYMEFRSLRSDDTAVYFCARSMITTRYWYFDVWGQGTLVTVSS VL: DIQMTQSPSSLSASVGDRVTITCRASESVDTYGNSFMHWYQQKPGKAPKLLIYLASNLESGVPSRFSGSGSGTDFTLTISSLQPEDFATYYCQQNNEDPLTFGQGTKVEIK
Key: 0.00037

Exercise: Can you share its koff? I mean this binder: hz13-5 (antibody, IgG1, V domains shown, also called clone 13-based hz13-5 antibody; parent hz13-5) VH: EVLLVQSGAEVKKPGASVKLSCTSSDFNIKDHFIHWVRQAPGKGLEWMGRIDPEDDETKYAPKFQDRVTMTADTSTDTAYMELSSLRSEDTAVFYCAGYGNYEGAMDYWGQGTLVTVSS VL: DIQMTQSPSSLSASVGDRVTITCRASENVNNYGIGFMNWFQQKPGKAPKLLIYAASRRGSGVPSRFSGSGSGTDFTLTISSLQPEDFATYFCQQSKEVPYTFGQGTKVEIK
Key: 0.00021

Exercise: Can you share its koff? I mean this binder: hz20-1 (antibody, V domains shown, light constant region not tied to this antibody) VH: QVQLVQSGAEVKKPGASVKVSCKASGYTFTNYGISWVRQAPGQGLEWMGEIYPRSGNTYHNEKFKDRVTMTRDTSTSTVYMELSSLRSEDTAVYYCARSMITTRYWYFDVWGKGTTVTVSS VL: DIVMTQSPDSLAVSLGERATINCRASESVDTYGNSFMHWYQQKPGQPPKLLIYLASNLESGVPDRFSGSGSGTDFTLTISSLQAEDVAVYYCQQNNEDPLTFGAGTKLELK
Key: 0.00054

Exercise: Can you share its koff? I mean this binder: hz20-4 (antibody, V domains shown, light constant region not tied to this antibody) VH: QVQLVQSGAEVKKPGASVKVSCKASGYTFTNYGISWVRQAPGQGLEWMGEIYPRSGNTYHNEKFKDRVTMTADTSTSTVYMELSSLRSEDTAVYYCARSMITTRYWYFDVWGKGTTVTVSS VL: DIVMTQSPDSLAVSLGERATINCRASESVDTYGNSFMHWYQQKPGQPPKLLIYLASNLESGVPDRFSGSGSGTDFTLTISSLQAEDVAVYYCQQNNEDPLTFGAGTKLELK
Key: 0.00073
